assay-details: Phase I study plasma pharmacokinetics
Type: in vivo, human
settings: human, plasma, po, 600 mg/day, Day 1 first dose; 600 mg/day BID; n=7; median; read-out: Tmax
endpoint: Tmax (h)
One number for each entry, in h.

Query :: Note Tmax for the compound shown: Cc1ccc2c(Nc3cccc(Cl)c3F)nccc2c1NC(=O)c1csc2c(N)ncnc12
Result :: 24

* * *

assay-details: Phase I study plasma pharmacokinetics
Format: in vivo, human
settings: human, plasma, po, 600 mg/day, Day 1 first dose; 600 mg/day QD; n=6; mean
endpoint: Cmax (ng/mL)
One number for each entry, in ng/mL.

Query :: Note Cmax for the compound shown: Cc1ccc2c(Nc3cccc(Cl)c3F)nccc2c1NC(=O)c1csc2c(N)ncnc12
Result :: 1320
